Target: Retinoic acid receptor RXR-alpha (Homo sapiens) (UniProt P19793)
Sequence (P19793 whole entry, looked up): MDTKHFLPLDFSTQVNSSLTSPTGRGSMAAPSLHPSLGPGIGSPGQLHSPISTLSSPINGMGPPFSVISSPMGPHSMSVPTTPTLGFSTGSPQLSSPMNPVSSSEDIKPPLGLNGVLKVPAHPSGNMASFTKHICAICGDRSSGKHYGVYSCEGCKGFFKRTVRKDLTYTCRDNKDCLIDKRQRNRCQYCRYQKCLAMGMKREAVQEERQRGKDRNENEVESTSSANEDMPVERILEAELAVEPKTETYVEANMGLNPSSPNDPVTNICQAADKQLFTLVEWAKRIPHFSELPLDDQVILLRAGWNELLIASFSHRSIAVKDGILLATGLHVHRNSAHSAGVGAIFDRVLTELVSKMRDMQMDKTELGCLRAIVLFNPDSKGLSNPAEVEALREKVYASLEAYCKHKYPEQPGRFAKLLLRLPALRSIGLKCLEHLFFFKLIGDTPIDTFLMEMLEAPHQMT
Assay: ATG_RXRa_TRANS: Attagene TRANS-FACTORIAL HepG2 Assay for human Retinoid X Receptor alpha (RXRa) (AID 2283012)
Protocol: ATG_TRANS is a cell-based, multiplexed-readout assay that uses HepG2, a human liver cell line, with measurements taken at 24 hours after chemical dosing in a 24-well plate.ATG_RXRa_TRANS is one of 30 assay component(s) measured or calculated from the ATG_TRANS assay. […] This assay endpoint, ATG_RXRa_TRANS, was analyzed in the positive analysis fitting direction relative to DMSO as the negative control and baseline of activity. […]
Records with an inconclusive call do not appear. Calls of active or inactive are those of the source. Rule for the calls: active = hit-call score of the fitted dose curve at least 0.9, where 1 is the maximum; inconclusive = response in the unintended direction; inactive = score below 0.9.
I would appreciate it if you answered using one of these outcomes: 1 for active, 0 for inactive

Query string: Name the outcome recorded for Oc1cc2ccccc2c2ccccc12 in the assay.
Result string: 0

Query string: Name the outcome recorded for OC1CCC(C2CCCCC2)CC1 (stereo not given) in the assay.
Result string: 0

Query string: Name the outcome recorded for CC(=O)CC(C)(C)O in the assay.
Result string: 0

Query string: Name the outcome recorded for C[C@@H]1C[C@H]2[C@@H]3CCC4=CC(=O)C=C[C@]4(C)[C@@]3(F)[C@@H](O)C[C@]2(C)[C@@]1(O)C(=O)COP(=O)(O)O in the assay.
Result string: 0

Query string: Name the outcome recorded for CCCCC(CC)COC(=O)CCCCC(=O)OCC(CC)CCCC (stereo not given) in the assay.
Result string: 0

Query string: Name the outcome recorded for COC(=O)CCCCC(=O)OC in the assay.
Result string: 0

Query string: Name the outcome recorded for CCCCCCCCCCCCN1CCCC1=O in the assay.
Result string: 0

Query string: Name the outcome recorded for CCCCCCCCCCCCCCCS(=O)(=O)Oc1ccccc1 in the assay.
Result string: 0

Query string: Name the outcome recorded for ClC1=C(Cl)C(Cl)(Cl)C(Cl)=C1Cl in the assay.
Result string: 0

Query string: Name the outcome recorded for CN1CCC[C@H]1c1cccnc1 in the assay.
Result string: 0

Query string: Name the outcome recorded for OCCC(F)(F)C(F)(F)C(F)(F)C(F)(F)C(F)(F)C(F)(F)C(F)(F)C(F)(F)F in the assay.
Result string: 0

Query string: Name the outcome recorded for CCCCCCCC(=O)O in the assay.
Result string: 0

Query string: Name the outcome recorded for CC#C[C@]1(O)CC[C@H]2[C@@H]3CCC4=CC(=O)CCC4=C3[C@@H](c3ccc(N(C)C)cc3)C[C@@]21C in the assay.
Result string: 0

Query string: Name the outcome recorded for CCCCCCCCCCCCc1ccccc1S(=O)(=O)O in the assay.
Result string: 0

Query string: Name the outcome recorded for NCC(F)(F)C(F)(F)C(F)(F)C(F)(F)C(F)(F)C(F)(F)C(F)(F)F in the assay.
Result string: 0

Query string: Name the outcome recorded for CCCCCCCCC(=O)O in the assay.
Result string: 0

Query string: Name the outcome recorded for CCCOc1sc(C(=O)N2CCC(c3cc(CN)ccc3F)CC2)c(C)c1Br in the assay.
Result string: 0

Query string: Name the outcome recorded for CCN(CC)CCNc1ccc(CNC=O)c2sc3ccc(OC)cc3c(=O)c12 in the assay.
Result string: 1

Query string: Name the outcome recorded for COc1ccc([N+](=O)[O-])cc1N in the assay.
Result string: 0

Query string: Name the outcome recorded for O=c1c(-c2ccc(O)cc2)coc2cc(O)ccc12 in the assay.
Result string: 0

Query string: Name the outcome recorded for Cc1oc(-c2ccccc2)nc1CCOc1ccc(C[C@H](Nc2ccccc2C(=O)c2ccccc2)C(=O)O)cc1 in the assay.
Result string: 0

Query string: Name the outcome recorded for N#C[C@@H]1CC(F)(F)CN1C(=O)CNC1CC2CCC(C1)N2c1ncccn1 (stereo not given in full) in the assay.
Result string: 0

Query string: Name the outcome recorded for O=C(O)c1ccccc1C(c1ccc(O)cc1)c1ccc(O)cc1 in the assay.
Result string: 0

Query string: Name the outcome recorded for c1ccc2cc3c(ccc4ccccc43)cc2c1 in the assay.
Result string: 0

Query string: Name the outcome recorded for CC(O)CO (stereo not given) in the assay.
Result string: 0

Source: PubChem BioAssay (EPA / NIEHS)
